Assay: Clinical study of the effect of food and antacid on pharmacokinetics after a single oral 40 mg tablet in healthy subjects
Assay type: in vivo, human
Details: both sexes, human, plasma, po, 40 mg, 1 hour after food; single 40 mg oral tablet; mean, n = 9
READOUT_TYPE: half-life (days)

>>> df
                        structure_as_smiles  endpoint_result
0  CCOC(=O)N[C@@H]1CC[C@@H]2[C@@H](C1)C[C@H]1C(=O)O[C@H](C)[C@H]1[C@H]2/C=C/c1ccc(-c2cccc(F)c2)cn1               12

====

Assay: Clinical study of the effect of food and antacid on pharmacokinetics after a single oral 40 mg tablet in healthy subjects
Type: in vivo, human
Conditions: both sexes, human, plasma, po, 40 mg, Fed (within 5 minutes of completing standardized high-fat breakfast); single 40 mg oral tablet; mean
READOUT_TYPE: Cmax

In [3]: df
Out[3]:
                        structure_as_smiles  endpoint_result
0  CCOC(=O)N[C@@H]1CC[C@@H]2[C@@H](C1)C[C@H]1C(=O)O[C@H](C)[C@H]1[C@H]2/C=C/c1ccc(-c2cccc(F)c2)cn1        347 ng/mL

====

Test: Clinical study of the effect of food and antacid on pharmacokinetics after a single oral 40 mg tablet in healthy subjects
Format: in vivo, human
Conditions: both sexes, human, plasma; Fed (immediately with food); single 40 mg oral tablet; median; read-out: Tmax
READOUT_TYPE: Tmax

>>> df
                                   molecule  endpoint_result
0  CCOC(=O)N[C@@H]1CC[C@@H]2[C@@H](C1)C[C@H]1C(=O)O[C@H](C)[C@H]1[C@H]2/C=C/c1ccc(-c2cccc(F)c2)cn1 [SCH 530348]              3 h

====

Assay: Clinical study of the effect of food and antacid on pharmacokinetics after a single oral 40 mg tablet in healthy subjects
Assay type: in vivo, human
Settings: both sexes, human, plasma, po, 40 mg, Fasted with antacid; single 40 mg oral tablet; mean; read-out: AUC(tf)
READOUT_TYPE: AUC (ng·h/mL)

>>> print(df.to_string())
                                   compound  endpoint_result
0  CCOC(=O)N[C@@H]1CC[C@@H]2[C@@H](C1)C[C@H]1C(=O)O[C@H](C)[C@H]1[C@H]2/C=C/c1ccc(-c2cccc(F)c2)cn1 [SCH 530348]            15000

====

Test: Clinical study of the effect of food and antacid on pharmacokinetics after a single oral 40 mg tablet in healthy subjects
Type: in vivo, human
Details: both sexes, human, plasma, po, 40 mg, Fasted with antacid; single 40 mg oral tablet; mean, n = 18
READOUT_TYPE: half-life (days)

In [3]: df
Out[3]:
                                   molecule  readout_type  unit_label  endpoint_result
0  CCOC(=O)N[C@@H]1CC[C@@H]2[C@@H](C1)C[C@H]1C(=O)O[C@H](C)[C@H]1[C@H]2/C=C/c1ccc(-c2cccc(F)c2)cn1 [SCH 530348]     half-life        days             10.2

====

Experiment: Clinical study of the effect of food and antacid on pharmacokinetics after a single oral 40 mg tablet in healthy subjects
Assay type: in vivo, human
Settings: both sexes, human, plasma, po, 40 mg, 2 hours after food; single 40 mg oral tablet; mean, n = 9; read-out: AUC(I)
READOUT_TYPE: AUC (ng·h/mL)

>>> df
                        structure_as_smiles  readout_type  unit_label  endpoint_result
0  CCOC(=O)N[C@@H]1CC[C@@H]2[C@@H](C1)C[C@H]1C(=O)O[C@H](C)[C@H]1[C@H]2/C=C/c1ccc(-c2cccc(F)c2)cn1           AUC     ng·h/mL            23400
